# Assay System: GST-fused human V158 FcγRIIIa (extracellular region) (human) (UniProt P08637)
# Sequence (P08637 17-208 F176V): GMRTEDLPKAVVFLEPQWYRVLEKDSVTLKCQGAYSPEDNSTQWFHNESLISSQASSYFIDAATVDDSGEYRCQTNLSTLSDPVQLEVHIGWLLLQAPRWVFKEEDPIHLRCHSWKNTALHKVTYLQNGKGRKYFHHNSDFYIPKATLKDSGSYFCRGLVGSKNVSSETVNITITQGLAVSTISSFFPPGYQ
# Experiment Notes: SPR, GST-FcγRIIIa V158 on chip
Observation Type: Fold KD relative to WT (fold)
Express your answer in fold, writing the number without its unit.

Some solved entries appear below for comparison.
Binder: AC10 H1L1 (H1 AC10 VH, L1 AC10 VL) (antibody, from a related filing, IgG1, V domains shown) VH: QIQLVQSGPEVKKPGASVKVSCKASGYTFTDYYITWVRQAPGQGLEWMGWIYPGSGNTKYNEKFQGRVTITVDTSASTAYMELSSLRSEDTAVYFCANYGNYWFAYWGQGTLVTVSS VL: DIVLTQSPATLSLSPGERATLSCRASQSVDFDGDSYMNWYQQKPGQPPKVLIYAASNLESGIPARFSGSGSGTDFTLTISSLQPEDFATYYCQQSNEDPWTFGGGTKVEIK
Observation Type: Fold KD relative to WT
Readout Value: 1.66
--
Binder: AC10 H2L3 (H2 AC10 VH, L3 AC10 VL) (antibody, from a related filing, IgG1, V domains shown) VH: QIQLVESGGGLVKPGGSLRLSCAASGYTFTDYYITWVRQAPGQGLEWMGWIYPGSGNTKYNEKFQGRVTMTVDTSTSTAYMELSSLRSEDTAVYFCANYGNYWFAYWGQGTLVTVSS VL: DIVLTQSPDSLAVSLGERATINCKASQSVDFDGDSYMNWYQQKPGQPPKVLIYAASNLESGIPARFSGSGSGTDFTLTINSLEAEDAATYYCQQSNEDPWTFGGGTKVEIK
Observation Type: Fold KD relative to WT
Readout Value: 5.28
--
Binder: AC10 H1L3 (H1 AC10 VH, L3 AC10 VL) (antibody, from a related filing, IgG1, V domains shown) VH: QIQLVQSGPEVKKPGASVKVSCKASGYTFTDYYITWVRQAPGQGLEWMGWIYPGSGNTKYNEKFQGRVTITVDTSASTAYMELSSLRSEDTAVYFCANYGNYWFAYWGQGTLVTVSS VL: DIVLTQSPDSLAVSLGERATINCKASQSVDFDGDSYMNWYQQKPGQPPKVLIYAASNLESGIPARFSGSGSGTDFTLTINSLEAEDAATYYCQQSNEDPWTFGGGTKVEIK
Observation Type: Fold KD relative to WT
Readout Value: 1.66
--
Binder: AC10 H3L3 (H3 AC10 VH, L3 AC10 VL) (antibody, from a related filing, IgG1, V domains shown) VH: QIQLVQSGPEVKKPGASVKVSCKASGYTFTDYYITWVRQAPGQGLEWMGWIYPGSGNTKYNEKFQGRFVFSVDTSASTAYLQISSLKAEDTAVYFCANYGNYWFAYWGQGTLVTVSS VL: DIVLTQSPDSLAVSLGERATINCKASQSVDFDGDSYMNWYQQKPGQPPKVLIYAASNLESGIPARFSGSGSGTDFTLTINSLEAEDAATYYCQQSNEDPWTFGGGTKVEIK
Observation Type: Fold KD relative to WT
Readout Value: 3.03
--
Binder: AC10 H1L2 (H1 AC10 VH, L2 AC10 VL) (antibody, from a related filing, IgG1, V domains shown) VH: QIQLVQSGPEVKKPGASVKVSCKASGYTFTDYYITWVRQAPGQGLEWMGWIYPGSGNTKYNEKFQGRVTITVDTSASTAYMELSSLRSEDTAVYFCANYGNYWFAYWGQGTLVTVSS VL: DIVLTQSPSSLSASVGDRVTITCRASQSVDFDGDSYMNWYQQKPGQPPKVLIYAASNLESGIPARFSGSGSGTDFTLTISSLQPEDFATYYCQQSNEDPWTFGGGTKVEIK
Observation Type: Fold KD relative to WT
Readout Value: 1.12

Please report Fold KD relative to WT for the following binder: AC10 H2L1 (H2 AC10 VH, L1 AC10 VL) (antibody, from a related filing, IgG1, V domains shown) VH: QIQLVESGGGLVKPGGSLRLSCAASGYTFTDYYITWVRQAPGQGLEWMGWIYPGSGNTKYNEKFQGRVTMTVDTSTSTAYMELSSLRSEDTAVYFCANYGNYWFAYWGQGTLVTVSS VL: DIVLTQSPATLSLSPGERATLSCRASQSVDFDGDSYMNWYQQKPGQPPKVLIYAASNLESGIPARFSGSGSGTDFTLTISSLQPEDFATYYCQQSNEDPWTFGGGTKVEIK 1.25
